Subject Of Test: Sodium/hydrogen exchanger (Oryctolagus cuniculus, UniProt P23791+P50482+P26432)
Assay: Inhibition of 5-N-(ethyl isopropyl)-amiloride[EIPA]-sensitive Na+ uptake into acidified rabbit erythrocytes.
Type: functional
Class field: derived from IC50; ranges low group: < 0.02 µM; middle group: ≥ 0.02 µM and < 0.06 µM; high group: ≥ 0.06 µM

Exam item: Band of `CS(=O)(=O)c1cc(C(=O)N=C(N)N)c(Cl)cc1Oc1cccnc1` ?
Marked response: middle group

Exam item: And the next one, `CS(=O)(=O)c1cc(C(=O)N=C(N)N)c(Cl)cc1Nc1ncccn1` ?
Marked response: middle group

Exam item: And the next one, `Cc1cc(Cl)c(S(C)(=O)=O)cc1C(=O)N=C(N)N` ?
Marked response: middle group

Exam item: And the next one, `Cc1cc(C)c(S(C)(=O)=O)cc1C(=O)N=C(N)N` ?
Marked response: low group

Exam item: And the next one, CS(=O)(=O)c1cc(C(=O)N=C(N)N)c(N)cc1N1CCCC(O)C1 (stereo not drawn) ?
Marked response: high group

Exam item: And the next one, `CS(=O)(=O)c1cc(C(=O)N=C(N)N)c(N2CCCCC2)cc1N1CCCCC1` ?
Marked response: high group

Exam item: And the next one, `Cc1cc(-n2ccc(=O)cc2)c(S(C)(=O)=O)cc1C(=O)N=C(N)N` ?
Marked response: high group

Exam item: And the next one, `Cc1cc(N2CCN(c3ncccn3)CC2)c(S(C)(=O)=O)cc1C(=O)N=C(N)N` ?
Marked response: middle group

Exam item: And the next one, `Cc1cc(OC(C)(C)C)c(S(C)(=O)=O)cc1C(=O)N=C(N)N` ?
Marked response: low group

Exam item: And the next one, `Cc1cc(Br)c(S(C)(=O)=O)cc1C(=O)N=C(N)N` ?
Marked response: low group

Exam item: And the next one, `Cc1cn(-c2cc(C)c(C(=O)N=C(N)N)cc2S(C)(=O)=O)cn1` ?
Marked response: middle group

Exam item: And the next one, `Cc1cc(C2CCCCC2)c(S(C)(=O)=O)cc1C(=O)N=C(N)N` ?
Marked response: middle group

Exam item: And the next one, `CCc1cc(Oc2cccnc2)c(S(C)(=O)=O)cc1C(=O)N=C(N)N` ?
Marked response: middle group

Exam item: And the next one, `Cc1cc(Nc2ncccn2)c(S(C)(=O)=O)cc1C(=O)N=C(N)N` ?
Marked response: low group

Exam item: And the next one, `CCc1cc(C)c(C(=O)N=C(N)N)cc1S(C)(=O)=O` ?
Marked response: low group

Exam item: And the next one, `Cc1cc(OC(C)C)c(S(C)(=O)=O)cc1C(=O)N=C(N)N` ?
Marked response: low group

Exam item: And the next one, `CCN(CC)Cc1cc(Br)c(S(C)(=O)=O)cc1C(=O)N=C(N)N` ?
Marked response: high group

Exam item: And the next one, `Cc1cc(-c2ccccc2)c(S(C)(=O)=O)cc1C(=O)N=C(N)N` ?
Marked response: low group

Exam item: And the next one, `CS(=O)(=O)c1cc(C(=O)N=C(N)N)ccc1-n1ccc(=O)cc1` ?
Marked response: high group

Exam item: And the next one, `Cc1ccc(C(=O)N=C(N)N)cc1S(C)(=O)=O` ?
Marked response: high group

Exam item: And the next one, `Cc1cc(OC2CCCCC2)c(S(C)(=O)=O)cc1C(=O)N=C(N)N` ?
Marked response: middle group

Exam item: And the next one, `CS(=O)(=O)c1cc(C(=O)N=C(N)N)c(Cl)cc1-n1ccnc1` ?
Marked response: high group

Exam item: And the next one, `CCc1cc(Cl)c(S(C)(=O)=O)cc1C(=O)N=C(N)N` ?
Marked response: high group
